For each entry below, report its inhibition at 10 µM value.
# Tested on: BT-549
# EXPERIMENT NOTES: NCI-60 anticancer screening (SRB)
# Type: cell-based
# MEASUREMENT PARAMETERS: Homo sapiens; BT-549, breast cancer; one dose 10 μM; read-out: Growth Inhibition Percentage (GI %)
Give bare numbers, in %.

- CCOC(=O)C1=C(N)N(c2ccc(Cl)cc2)C2=C(C(=O)CC(C)(C)C2)C1c1ccccc1Br (racemic) [6f]: 27
- CCOC(=O)C1=C(N)N(c2ccc(Cl)cc2)C2=C(C(=O)CC(C)(C)C2)C1c1ccc(OC)cc1 (racemic) [8h]: 25
- CCOC(=O)C1=C(N)N(c2ccc(C)cc2)C2=C(C(=O)CC(C)(C)C2)C1c1ccccn1 (racemic) [12b]: 30
- CCOC(=O)C1=C(N)N(c2ccccc2)C2=C(C(=O)CC(C)(C)C2)C1c1ccc(Cl)cc1Cl (racemic) [10c]: 67

Each molecule below has a reported value. Please supply its inhibition at 10 µM.
1. CCOC(=O)C1=C(N)N(c2ccc(C)cc2)C2=C(C(=O)CC(C)(C)C2)C1c1ccccc1Cl (racemic) [6b]
2. CCOC(=O)C1=C(N)N(c2ccc(Cl)cc2)C2=C(C(=O)CC(C)(C)C2)C1c1ccc(N2CCOCC2)cc1 (racemic) [8m]

11
76

---

# System: MDA-MB-435
# EXPERIMENT NOTES: NCI-60 anticancer screening (SRB)
# Format: cell-based
# MEASUREMENT PARAMETERS: Homo sapiens; MDA-MB-435, melanoma; one dose 10 μM; read-out: Growth Inhibition Percentage (GI %)
For each entry below, report its inhibition at 10 µM value.
Numbers only, in %.

* CCOC(=O)C1=C(N)N(c2ccc(Cl)cc2)C2=C(C(=O)CC(C)(C)C2)C1c1cccc(Cl)c1Cl (racemic) [10b] | 25
* CCOC(=O)C1=C(N)N(c2ccccc2)C2=C(C(=O)CC(C)(C)C2)C1c1cccc(Cl)c1Cl (racemic) [10a] | 13
* CCOC(=O)C1=C(N)N(c2ccccc2)C2=C(C(=O)CC(C)(C)C2)C1c1ccccc1Cl (racemic) | 27

Each compound below has a reported value. Please supply its inhibition at 10 µM.
1. CCOC(=O)C1=C(N)N(c2ccc(Cl)cc2)C2=C(C(=O)CC(C)(C)C2)C1c1ccccc1OC (racemic)
2. CCOC(=O)C1=C(N)N(c2ccc(Cl)cc2)C2=C(C(=O)CC(C)(C)C2)C1c1ccccc1Cl (racemic)
3. CCOC(=O)C1=C(N)N(c2ccccc2)C2=C(C(=O)CC(C)(C)C2)C1c1ccc(Cl)cc1 (racemic)
4. CCOC(=O)C1=C(N)N(c2ccc(C)cc2)C2=C(C(=O)CC(C)(C)C2)C1c1ccccc1Br (racemic)

1: 51; 2: 29; 3: 78; 4: 17

---

# Test system: MOLT-4
# EXPERIMENT NOTES: NCI-60 anticancer screening (SRB)
# Type: cell-based
# MEASUREMENT PARAMETERS: Homo sapiens; MOLT-4, leukemia; one dose 10 μM; read-out: Growth Inhibition Percentage (GI %)
READOUT LABEL: inhibition at 10 µM (%)
Answers are plain numbers, in %.

• CCOC(=O)C1=C(N)N(c2ccc(Cl)cc2)C2=C(C(=O)CC(C)(C)C2)C1c1ccc([N+](=O)[O-])cc1 (racemic) [8k] = 27
• CCOC(=O)C1=C(N)N(c2ccccc2)C2=C(C(=O)CC(C)(C)C2)C1c1ccc([N+](=O)[O-])cc1 (racemic) [8i] = 22

Let us examine a further case.
// fetch inhibition at 10 µM for CCOC(=O)C1=C(N)N(c2ccc(C)cc2)C2=C(C(=O)CC(C)(C)C2)C1c1ccccc1Br (racemic) [6e] ; system: MOLT-4
71

---

# Tested on: SR
# EXPERIMENT NOTES: NCI-60 anticancer screening (SRB)
# Format: cell-based
# MEASUREMENT PARAMETERS: Homo sapiens, leukemia, one dose 10 μM, read-out: Growth Inhibition Percentage (GI %)
READOUT LABEL: inhibition at 10 µM (%)
One number for each entry, in %.

- CCOC(=O)C1=C(N)N(c2ccc(Cl)cc2)C2=C(C(=O)CC(C)(C)C2)C1c1ccc(Cl)cc1 (racemic): 52
- CCOC(=O)C1=C(N)N(c2ccccc2)C2=C(C(=O)CC(C)(C)C2)C1c1ccc(N2CCOCC2)cc1 (racemic): 16

Let us examine a further case.
// fetch inhibition at 10 µM for CCOC(=O)C1=C(N)N(c2ccccc2)C2=C(C(=O)CC(C)(C)C2)C1c1ccc(Cl)cc1 (racemic) ; system: SR
87

---

For each entry below, report its inhibition at 10 µM value.
# Test system: MALME-3M
# EXPERIMENT NOTES: NCI-60 anticancer screening (SRB)
# Format: cell-based
# MEASUREMENT PARAMETERS: Homo sapiens, melanoma, one dose 10 μM, read-out: Growth Inhibition Percentage (GI %)

// solved cases for inhibition at 10 µM follow
* CCOC(=O)C1=C(N)N(c2ccccc2)C2=C(C(=O)CC(C)(C)C2)C1c1ccc(Cl)cc1Cl (racemic) [10c] | 72%
* CCOC(=O)C1=C(N)N(c2ccc(Cl)cc2)C2=C(C(=O)CC(C)(C)C2)C1c1ccccc1Cl (racemic) [6c] | 30%
* CCOC(=O)C1=C(N)N(c2ccc(C)cc2)C2=C(C(=O)CC(C)(C)C2)C1c1ccccc1Cl (racemic) [6b] | < 10%
* CCOC(=O)C1=C(N)N(c2ccccc2)C2=C(C(=O)CC(C)(C)C2)C1c1ccccc1OC (racemic) [6g] | < 10%
* CCOC(=O)C1=C(N)N(c2ccc(Cl)cc2)C2=C(C(=O)CC(C)(C)C2)C1c1ccc([N+](=O)[O-])cc1 (racemic) [8k] | < 10%

Each compound below has a reported value. Please supply its inhibition at 10 µM.
1. CCOC(=O)C1=C(N)N(c2ccc(Cl)cc2)C2=C(C(=O)CC(C)(C)C2)C1c1ccc(Cl)cc1 (racemic) [8e]
2. CCOC(=O)C1=C(N)N(c2ccc(Cl)cc2)C2=C(C(=O)CC(C)(C)C2)C1c1cccnc1 (racemic) [12f]

1: 39%; 2: < 10%

Each compound below has a reported value. Please supply its inhibition at 10 µM.
1. CCOC(=O)C1=C(N)N(c2ccccc2)C2=C(C(=O)CC(C)(C)C2)C1c1ccccc1Br (racemic) [6d]
2. CCOC(=O)C1=C(N)N(c2ccc(C)cc2)C2=C(C(=O)CC(C)(C)C2)C1c1ccc([N+](=O)[O-])cc1 (racemic) [8j]
3. CCOC(=O)C1=C(N)N(c2ccccc2)C2=C(C(=O)CC(C)(C)C2)C1c1ccc(OC)cc1 (racemic) [8f]
4. CCOC(=O)C1=C(N)N(c2ccccc2)C2=C(C(=O)CC(C)(C)C2)C1c1ccc(F)cc1 (racemic) [8a]
5. CCOC(=O)C1=C(N)N(c2ccc(C)cc2)C2=C(C(=O)CC(C)(C)C2)C1c1cccnc1 (racemic) [12e]
6. CCOC(=O)C1=C(N)N(c2ccc(C)cc2)C2=C(C(=O)CC(C)(C)C2)C1c1ccc(OC)cc1 (racemic) [8g]

1. < 10%
2. < 10%
3. < 10%
4. < 10%
5. < 10%
6. < 10%

Each compound below has a reported value. Please supply its inhibition at 10 µM.
1. CCOC(=O)C1=C(N)N(c2ccc(Cl)cc2)C2=C(C(=O)CC(C)(C)C2)C1c1ccc(F)cc1 (racemic) [8b]
2. CCOC(=O)C1=C(N)N(c2ccc(Cl)cc2)C2=C(C(=O)CC(C)(C)C2)C1c1ccc(Cl)cc1Cl (racemic) [10d]

1: < 10%; 2: 32%

Each compound below has a reported value. Please supply its inhibition at 10 µM.
1. CCOC(=O)C1=C(N)N(c2ccccc2)C2=C(C(=O)CC(C)(C)C2)C1c1cccc(Cl)c1Cl (racemic) [10a]
2. CCOC(=O)C1=C(N)N(c2ccccc2)C2=C(C(=O)CC(C)(C)C2)C1c1ccccn1 (racemic) [12a]
3. CCOC(=O)C1=C(N)N(c2ccccc2)C2=C(C(=O)CC(C)(C)C2)C1c1ccc(N2CCOCC2)cc1 (racemic) [8l]

1: 19%; 2: < 10%; 3: < 10%

---

For each entry below, report its inhibition at 10 µM value.
# Test system: SN 12C
# EXPERIMENT NOTES: NCI-60 anticancer screening (SRB)
# Format: cell-based
# MEASUREMENT PARAMETERS: Homo sapiens, SN12C; SN 12C, renal cancer; one dose 10 μM; read-out: Growth Inhibition Percentage (GI %)
Numbers only, in %.

• CCOC(=O)C1=C(N)N(c2ccccc2)C2=C(C(=O)CC(C)(C)C2)C1c1ccc(Cl)cc1Cl (racemic) [10c] = 79

Look up and report measured inhibition at 10 µM for this entry: CCOC(=O)C1=C(N)N(c2ccccc2)C2=C(C(=O)CC(C)(C)C2)C1c1ccc(Cl)cc1 (racemic)
46
